Give Ki for every item shown.
molecular target: PCSK9 (Homo sapiens); construct: purchased; test: PCSK9 Alexa FRET Plus TR-FRET assay; type: binding; settings: displacement of AlexaFluor647 tagged cyclic peptide Reagent B (960 nM) from biotinylated PCSK9 (0.5 nM); read-out: Plus / P (Alexa Fret plus standard TR Fret); Ki calculated from the IC50 and the KD of AF cyclic peptide
Sequence (Q8NBP7 153-692): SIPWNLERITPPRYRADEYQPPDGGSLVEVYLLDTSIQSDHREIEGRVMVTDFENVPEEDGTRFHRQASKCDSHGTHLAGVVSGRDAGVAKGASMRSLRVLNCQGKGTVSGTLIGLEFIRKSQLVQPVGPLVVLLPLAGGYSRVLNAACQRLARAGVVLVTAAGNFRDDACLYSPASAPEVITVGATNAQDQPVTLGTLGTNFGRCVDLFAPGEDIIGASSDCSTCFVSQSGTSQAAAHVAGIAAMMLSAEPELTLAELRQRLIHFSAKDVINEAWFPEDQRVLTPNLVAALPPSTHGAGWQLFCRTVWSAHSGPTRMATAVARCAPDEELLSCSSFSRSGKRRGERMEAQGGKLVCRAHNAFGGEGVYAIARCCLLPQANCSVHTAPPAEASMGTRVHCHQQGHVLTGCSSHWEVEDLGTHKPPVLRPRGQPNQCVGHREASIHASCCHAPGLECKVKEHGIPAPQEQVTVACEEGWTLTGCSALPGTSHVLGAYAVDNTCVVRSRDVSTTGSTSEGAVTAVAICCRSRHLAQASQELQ
Starred links: 1 amine or outer side, 2 acyl side, 3 side chain; linkers in the order of their positions; H or OH if unused. Positions of bridges follow the written chain, without caps; N, C: chain ends. Non-standard residues stand in square brackets, D forms with d. Residues, ends and D or L forms follow the SMILES beside them. *: point of attachment. Phe(3-CH2NH2) = O=C([C@H](Cc1cccc(CN[*:3])c1)N[*:1])[*:2]; Trp(5-F) = N[C@@H](Cc1c[nH]c2ccc(F)cc12)C(=O)O; X1 = O=C(CCC(=O)[*:1])NCc1ccc(CCN[*:2])cc1; NMeE = CN[C@@H](CCC(=O)O)C(=O)O; αMeP = C[C@@]1(C(=O)O)CCCN1; dDap = NC[C@@H](N)C(=O)O; Boc = CC(C)(C)OC(=O)*; tBu = CC(C)(C)*
Express your answer in nM, writing the number without its unit.

Documented Ki of COc1ccc(C[C@@H]2NC(=O)[C@H]([C@@H](C)OC(C)(C)C)NC(=O)[C@@H]3CCC(=O)NCc4cccc(c4)C[C@H](NC(=O)[C@@H](CNC(=O)OC(C)(C)C)NC(=O)[C@H](C)NC(=O)CCC(=O)NCc4ccc(cc4)CCNC(=O)[C@]4(C)CCCN4C2=O)C(=O)N[C@@H](Cc2c[nH]c4ccc(F)cc24)C(=O)N3C)cc1 [Ex-C05] (A[dDap](Boc)[Phe(3-CH2NH2)][Trp(5-F)][NMeE]T(tBu)Y(Me)[αMeP]; lactam 3-5; linker N-C via X1) : 4.37

Documented Ki of COc1ccc(C[C@@H]2NC(=O)[C@H]([C@H](C)O)NC(=O)[C@@H]3[C@@H]4CCN3C(=O)[C@H](Cc3c[nH]c5ccc(F)cc35)NC(=O)[C@H](Cc3cccc(c3)Cn3cc(nn3)CO4)NC(=O)[C@@H](C)NC(=O)[C@H](C)NC(=O)[C@@H](NC(C)=O)CC(=O)NCc3ccc(cc3)C[C@@H](C(N)=O)NC(=O)[C@]3(C)CCCN3C2=O)cc1 : 0.32

Documented Ki of COc1ccc(C[C@@H]2NC(=O)[C@H]([C@H](C)O)NC(=O)[C@@H]3[C@@H]4CCN3C(=O)[C@H](Cc3c[nH]c5ccc(F)cc35)NC(=O)[C@H](Cc3cccc(c3)Cn3cc(nn3)CO4)NC(=O)[C@@H](C)NC(=O)[C@H](CCCC[N+](C)(C)C)NC(=O)CCC(=O)NCc3ccc(cc3)C[C@@H](C(N)=O)NC(=O)[C@]3(C)CCCN3C2=O)cc1 : 0.32

Documented Ki of COc1ccc(C[C@@H]2NC(=O)[C@H]([C@@H](C)O)NC(=O)C[C@@H]3[C@@H]4CCN3C(=O)[C@H](Cc3c[nH]c5ccc(F)cc35)NC(=O)[C@H](Cc3cccc(c3)CNC(=O)CO4)NC(=O)[C@@H](CNC(=O)CCOCCOCC[N+](C)(C)C)NC(=O)[C@H](C)NC(=O)CCC(=O)NCc3ccc(cc3)CCNC(=O)[C@]3(C)CCCN3C2=O)cc1 : 0.02
